molecular target: Gonadotropin-releasing hormone receptor (Homo sapiens) (UniProt P30968); assay: Human gonadotropin-releasing hormone receptor (GnRHR) small molecule agonists, calcium flux assay in GnRHR-HEK293 cells (AID 1920063); conditions: calcium flux fluorescence, agonist mode; series mostly up to 57.6 µM; also: nearly all actives have a fitted effect of over 35% in size
Sequence (P30968 whole entry, looked up): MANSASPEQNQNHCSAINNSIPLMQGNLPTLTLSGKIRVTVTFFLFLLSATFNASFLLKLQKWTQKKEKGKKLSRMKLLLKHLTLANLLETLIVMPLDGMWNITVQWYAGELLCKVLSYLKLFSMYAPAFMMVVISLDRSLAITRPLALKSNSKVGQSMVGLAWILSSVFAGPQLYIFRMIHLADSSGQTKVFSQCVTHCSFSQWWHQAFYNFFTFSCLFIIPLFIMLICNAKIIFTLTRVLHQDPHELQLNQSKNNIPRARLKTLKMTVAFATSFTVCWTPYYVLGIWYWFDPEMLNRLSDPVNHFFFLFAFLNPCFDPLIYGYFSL
Calls of active or inactive are those of the source. Calls follow the shape of the full dose curve.
quantity: activity change

Solved cases (8 shown):
COC(=O)c1ccc(I)cc1S(=O)(=O)NC(=O)Nc1nc(C)nc(OC)n1    inactive
CCC(C)c1cc([N+](=O)[O-])cc([N+](=O)[O-])c1OC(=O)OC(C)C (configuration not stated)    inactive
C/C=C(/C(=C/C)c1ccc(O)cc1)c1ccc(O)cc1    inactive
C=CC(=O)OCCOCCOCC    inactive
c1ccc(CNCCNCc2ccccc2)cc1    inactive
COc1c(C)c2c(c(O)c1C/C=C(\C)CCC(=O)O)C(=O)OC2    inactive
CCCCCCCCN    inactive
Cc1cc(O)c2c(c1)C(=O)c1cccc(O)c1C2=O    inactive

## Task What does the data say about its activity change? Entry: "CN(C)CCOCCN(C)CCO"
## Result inactive

## Task What does the data say about its activity change? Entry: O[C@@H](COc1cccc2ncccc12)CN1CCN(C2c3ccccc3[C@@H]3[C@H](c4ccccc42)C3(F)F)CC1 (some centres not stated)
## Result inactive

## Task What does the data say about its activity change? Entry: "C/C(=N/NC(=O)c1ccncc1)C(=O)O"
## Result inactive

## Task What does the data say about its activity change? Entry: "CC(C)(C)C(=O)O"
## Result inactive

---

experiment: Nuclear factor erythroid 2-related factor 2/antioxidant responsive element (Nrf2/ARE) small molecule agonists: qHTS cell viability counter screen in human keratinocytes (AID 1919968); settings: KeratinoSens HaCaT ARE cells viability, CellTiter-Fluor, 24 h; series mostly up to 92.4 µM; also: nearly all actives have a fitted effect of over 55% in size
Records with an inconclusive call do not appear. Calls of active or inactive are those of the source. Calls follow the shape of the dose curve; as a rule, active = well fitted cell-killing curve with a large enough effect in the repeat runs; inconclusive = weak or mixed curves, or effect the other way; inactive = flat fitted curve, though single readings scatter.
Return exactly one item of active, inactive

## Task GET /call?item= "CCCCOC(=O)CC" returns the recorded outcome of this test.
## Result inactive

## Task GET /call?item= "Cc1c(N=C=O)cccc1N=C=O" returns the recorded outcome of this test.
## Result inactive

## Task GET /call?item= "O=C1CCCCO1" returns the recorded outcome of this test.
## Result inactive

## Task GET /call?item= "Nc1ccc(S(=O)(=O)Nc2ccccn2)cc1" returns the recorded outcome of this test.
## Result inactive

## Task GET /call?item= "CCCCCCCCCCCC(C)=O" returns the recorded outcome of this test.
## Result inactive

## Task GET /call?item= "Cc1cc(C(=O)O)ccc1[N+](=O)[O-]" returns the recorded outcome of this test.
## Result inactive

## Task GET /call?item= "Cc1ccc2oc(CN(Cc3ccccc3)C(=O)Nc3c(F)cc(F)cc3F)c(-c3ccc(Cl)cc3)c2c1" returns the recorded outcome of this test.
## Result inactive

## Task GET /call?item= "CCCCCCCCCCn1cc[n+](CCCCCCCCCC)c1C" returns the recorded outcome of this test.
## Result active

---

target: 5-hydroxytryptamine receptor 2A (Homo sapiens) (UniProt P28223); experiment: 5-hydroxytryptamine receptor 2A (HTR2A) small molecule antagonists, cell-based qHTS assay (AID 1963586); conditions: HTR2A-CHO cells, DOI-induced calcium flux, fluorescence; series mostly up to 61.5 µM; also: nearly all actives have a fitted effect of over 45% in size
Sequence (P28223 whole entry, looked up): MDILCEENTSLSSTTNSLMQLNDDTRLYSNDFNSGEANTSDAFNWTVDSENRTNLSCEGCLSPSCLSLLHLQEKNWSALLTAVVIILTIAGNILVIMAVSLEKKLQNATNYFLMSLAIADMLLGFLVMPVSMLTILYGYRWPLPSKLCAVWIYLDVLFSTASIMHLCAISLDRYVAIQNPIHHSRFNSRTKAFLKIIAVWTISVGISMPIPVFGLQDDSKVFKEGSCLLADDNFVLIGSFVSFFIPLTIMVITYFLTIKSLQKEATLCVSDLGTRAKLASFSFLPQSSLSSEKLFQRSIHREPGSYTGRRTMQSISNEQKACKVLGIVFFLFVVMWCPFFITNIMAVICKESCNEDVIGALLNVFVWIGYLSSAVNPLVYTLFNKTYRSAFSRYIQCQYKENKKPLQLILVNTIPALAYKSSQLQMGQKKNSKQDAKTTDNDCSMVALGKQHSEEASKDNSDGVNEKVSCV
Records with an inconclusive call do not appear. Activity calls are given as the source filed them. The call rests on the fitted dose curve.
Return exactly one item of active, inactive

## Task GET /call?item= "CCCOC(=O)c1ccc(C(=O)OCCC)nc1" returns the recorded outcome of this test.
## Result inactive

## Task GET /call?item= "CC[C@H](NC(C)C)[C@H](O)c1ccc(O)c2[nH]c(=O)ccc12" returns the recorded outcome of this test.
## Result inactive

## Task GET /call?item= "C[C@@H]1CN(CCCn2c3ccccc3c3ccccc32)C[C@H](C)N1" returns the recorded outcome of this test.
## Result inactive

## Task GET /call?item= "CS(=O)(=O)c1ccc(-c2cn3ccccc3n2)cc1" returns the recorded outcome of this test.
## Result inactive

## Task GET /call?item= CCCC(C)C=O (stereo not drawn) returns the recorded outcome of this test.
## Result inactive

## Task GET /call?item= "CCCCOCCOC(=O)COc1ccc(Cl)cc1Cl" returns the recorded outcome of this test.
## Result inactive

## Task GET /call?item= "CC(C)(C)OC(=O)N1C[C@@H](F)C[C@H]1C(=O)O" returns the recorded outcome of this test.
## Result inactive

## Task GET /call?item= "O=c1[nH]cnc2nc[nH]c12" returns the recorded outcome of this test.
## Result inactive

## Task GET /call?item= "O=C1CCCCCCCCCCC(=O)OCCO1" returns the recorded outcome of this test.
## Result inactive

## Task GET /call?item= "CCOC(=O)N1CCC(Nc2ccc(Cl)cc2N)CC1" returns the recorded outcome of this test.
## Result inactive

## Task GET /call?item= CC(C(O)c1ccc(O)cc1)N1CCC(Cc2ccccc2)CC1 (stereo not drawn) returns the recorded outcome of this test.
## Result active

## Task GET /call?item= "Cc1ccc(NC(N)=O)cc1" returns the recorded outcome of this test.
## Result inactive

## Task GET /call?item= O=C(OCC1CO1)C1CCCCC1C(=O)OCC1CO1 (stereo not drawn) returns the recorded outcome of this test.
## Result inactive

---

experiment: Nuclear factor erythroid 2-related factor 2/antioxidant responsive element (Nrf2/ARE) small molecule agonists: luciferase reporter gene qHTS assay in human keratinocytes (AID 1919969); conditions: KeratinoSens HaCaT ARE-luciferase, luminescence, 24 h; series mostly up to 92.4 µM; also: nearly all actives have a fitted effect of over 35% in size
Results filed as inconclusive are left out. Active and inactive are the calls of the source. Calls follow the shape of the full dose curve.
Return exactly one item of yes (active), no (inactive)

## Task GET /call?item= "O=CC(=O)c1ccccc1" returns the recorded outcome of this test.
## Result yes

## Task GET /call?item= "CC(C)CCCCCCOC(=O)CCCCC(=O)OCCCCCCC(C)C" returns the recorded outcome of this test.
## Result no

## Task GET /call?item= "CCCCOCCOC(=O)COc1cc(Cl)c(Cl)cc1Cl" returns the recorded outcome of this test.
## Result no

## Task GET /call?item= "CN1CCN(c2cc3c(cc2F)c(=O)c(C(=O)O)cn3-c2ccc(F)cc2)CC1" returns the recorded outcome of this test.
## Result no

## Task GET /call?item= "CN1CCC(=C2c3ccccc3CC(=O)c3sccc32)CC1" returns the recorded outcome of this test.
## Result no

## Task GET /call?item= "Cc1c(C2(c3cc(Br)c(O)c(Br)c3C)OS(=O)(=O)c3ccccc32)cc(Br)c(O)c1Br" returns the recorded outcome of this test.
## Result no

## Task GET /call?item= "Cc1c(C)c2c(c(C)c1O)CC[C@@](C)(CCC[C@H](C)CCC[C@H](C)CCCC(C)C)O2" returns the recorded outcome of this test.
## Result no

## Task GET /call?item= "O=C(CCCCCCCCC#CI)Oc1ccccc1" returns the recorded outcome of this test.
## Result no

## Task GET /call?item= "CC(C)(O)c1ccc(CNC(=O)c2cccnc2Oc2ccc(F)cc2)cc1" returns the recorded outcome of this test.
## Result no

## Task GET /call?item= "CCc1cccc(C)c1" returns the recorded outcome of this test.
## Result no

## Task GET /call?item= "CCCCCCC/C=C/C=O" returns the recorded outcome of this test.
## Result no

## Task GET /call?item= "CCOC(=O)Cc1cccc2ccccc12" returns the recorded outcome of this test.
## Result no

## Task GET /call?item= "CCN(CC)CCOc1ccccc1C(=O)CCc1ccccc1" returns the recorded outcome of this test.
## Result no

## Task GET /call?item= "CCCCN(CCCC)C(=O)N(CCCC)CCCC" returns the recorded outcome of this test.
## Result yes

## Task GET /call?item= "Cc1cccc(C(=O)O)c1[N+](=O)[O-]" returns the recorded outcome of this test.
## Result no

## Task GET /call?item= "CCN(CC)c1ccc(C(=C2C=CC(=[N+](CC)CC)C=C2)c2ccc(S(=O)(=O)O)cc2S(=O)(=O)[O-])cc1" returns the recorded outcome of this test.
## Result no

## Task GET /call?item= "Cc1nc(C)nc(N2C[C@@H](C)N(c3ccnc([C@@H](C)O)n3)[C@@H](C)C2)n1" returns the recorded outcome of this test.
## Result no

## Task GET /call?item= "C[C@@H]1C[C@H]2[C@@H]3CCC4=CC(=O)C=C[C@]4(C)[C@@]3(F)[C@@H](O)C[C@]2(C)[C@@]1(O)C(=O)CO" returns the recorded outcome of this test.
## Result no

## Task GET /call?item= "COc1ccc2c(c1)c(CC(=O)OCC(=O)O)c(C)n2C(=O)c1ccc(Cl)cc1" returns the recorded outcome of this test.
## Result no

## Task GET /call?item= "CCNC(=O)NCCCOc1cccc(CN2CCCCC2)c1" returns the recorded outcome of this test.
## Result no

## Task GET /call?item= "O=C1c2ccccc2C(=O)C1(O)O" returns the recorded outcome of this test.
## Result yes

## Task GET /call?item= "O=C(NS(=O)(=O)/C=C/c1ccccc1)c1ccc(F)cc1Cl" returns the recorded outcome of this test.
## Result yes

## Task GET /call?item= CCCCOC(=O)C(C)O (stereo unspecified) returns the recorded outcome of this test.
## Result no

## Task GET /call?item= "CCCCC(=O)O[C@]1(C(=O)CO)CC[C@H]2[C@@H]3CCC4=CC(=O)CC[C@]4(C)[C@H]3[C@@H](O)C[C@@]21C" returns the recorded outcome of this test.
## Result no

## Task GET /call?item= "C/C=C/C=C/CCCCCCCO" returns the recorded outcome of this test.
## Result yes

## Task GET /call?item= "Cc1nnc(C(=O)NC(C)(C)c2nc(C(=O)NCc3ccc(F)cc3)c(O)c(=O)n2C)o1" returns the recorded outcome of this test.
## Result no

## Task GET /call?item= "OC[C@H]1O[C@@H](O[C@@H]2[C@@H](CO)O[C@](O)(CO)[C@H]2O)[C@H](O)[C@@H](O)[C@H]1O" returns the recorded outcome of this test.
## Result no

## Task GET /call?item= "O=C(NCCO[N+](=O)[O-])c1cccnc1" returns the recorded outcome of this test.
## Result no

## Task GET /call?item= "COc1cc2c(cc1OC)CN(C(=O)[C@H](C)N[C@@H](CCc1ccccc1)C(=O)O)[C@H](C(=O)O)C2" returns the recorded outcome of this test.
## Result no

## Task GET /call?item= "OCCCO" returns the recorded outcome of this test.
## Result no

## Task GET /call?item= CCC1(C)C(=O)N(Cl)C(=O)N1Cl (stereo unspecified) returns the recorded outcome of this test.
## Result no

## Task GET /call?item= "OC1(c2ccccc2)CCNCC1" returns the recorded outcome of this test.
## Result no

## Task GET /call?item= "Cc1c(C)c([N+](=O)[O-])c(C(C)(C)C)c([N+](=O)[O-])c1C" returns the recorded outcome of this test.
## Result no

## Task GET /call?item= "CCCCCCOC(=O)C(C)C" returns the recorded outcome of this test.
## Result no

## Task GET /call?item= "Nc1cc([N+](=O)[O-])cc(Cl)c1O" returns the recorded outcome of this test.
## Result no

## Task GET /call?item= Cc1cc2c(OCC(CNC(C)(C)C)OC(=O)c3ccccc3)cccc2[nH]1 (stereo unspecified) returns the recorded outcome of this test.
## Result no

## Task GET /call?item= "Cc1cc(CCCOc2c(C)cc(-c3noc(C(F)(F)F)n3)cc2C)on1" returns the recorded outcome of this test.
## Result yes

## Task GET /call?item= "CN1C[C@H](C(=O)N[C@]2(C)O[C@@]3(O)[C@@H]4CCCN4C(=O)[C@H](Cc4ccccc4)N3C2=O)C[C@@H]2c3cccc4[nH]cc(c34)C[C@H]21" returns the recorded outcome of this test.
## Result no

## Task GET /call?item= "C[n+]1cc2c3c(ccc2c2ccc4cc5c(cc4c21)OCO5)OCO3" returns the recorded outcome of this test.
## Result yes

## Task GET /call?item= "C=COCCCCO" returns the recorded outcome of this test.
## Result no

## Task GET /call?item= "CC(C)CCCCCCOC(=O)c1ccc(C(=O)OCCCCCCC(C)C)c(C(=O)OCCCCCCC(C)C)c1" returns the recorded outcome of this test.
## Result no

## Task GET /call?item= O[C@@H](COc1cccc2ncccc12)CN1CCN(C2c3ccccc3[C@@H]3[C@H](c4ccccc42)C3(F)F)CC1 (stereo partly specified) returns the recorded outcome of this test.
## Result no

## Task GET /call?item= "CCCCCCCCCCCCN(CCO)CCO" returns the recorded outcome of this test.
## Result no

## Task GET /call?item= "COc1c(N2C[C@@H]3CCCN[C@@H]3C2)c(F)cc2c(=O)c(C(=O)O)cn(C3CC3)c12" returns the recorded outcome of this test.
## Result no

## Task GET /call?item= "COC(=O)c1ccc(OC)cc1" returns the recorded outcome of this test.
## Result no

## Task GET /call?item= "C[C@H](N)[C@H](O)c1cccc(O)c1" returns the recorded outcome of this test.
## Result no
